# CONDITION_SUMMARY: cell viability/%
Where a SMILES comes first, the peptide text is derived from it. [ ]: non-standard residue; d: D form. The star is where a group is joined. NHCH2CH2OH = OCCN*; For = O=C*
Each item that follows carries a reported viability.
Numbers only here, please. The scale is %.

Here are 3 compounds together with their reported answers.
[
  {
    "COMPOUND": "CC(C)C[C@@H](NC(=O)[C@H](Cc1c[nH]c2ccccc12)NC(=O)[C@@H](CC(C)C)NC(=O)[C@H](Cc1c[nH]c2ccccc12)NC(=O)[C@H](NC(=O)[C@H](Cc1c[nH]c2ccccc12)NC(=O)[C@@H](CC(C)C)NC(=O)[C@@H](NC(=O)[C@H](NC(=O)[C@H](C)NC(=O)[C@H](NC(=O)[C@H](C)NC(=O)CNC(=O)[C@@H](NC=O)C(C)C)[C@H](C)O)C(C)C)C(C)C)C(C)C)C(=O)N[C@@H](Cc1c[nH]c2ccccc12)C(=O)NCCO [compound 8827] (For-VGA[dT]A[dV]V[dL]W[dV]W[dL]W[dL]W-NHCH2CH2OH)",
    "viability (%)": 80.7
  },
  {
    "COMPOUND": "CC(C)C[C@@H](NC(=O)[C@H](C)NC(=O)[C@H](NC(=O)[C@H](C)NC(=O)CNC(=O)[C@@H](NC=O)C(C)C)C(C)C)C(=O)N[C@H](C(=O)N[C@@H](C(=O)N[C@@H](Cc1c[nH]c2ccccc12)C(=O)N[C@H](CC(C)C)C(=O)N[C@@H](Cc1c[nH]c2ccccc12)C(=O)N[C@H](CC(C)C)C(=O)N[C@@H](Cc1c[nH]c2ccccc12)C(=O)N[C@H](CC(C)C)C(=O)N[C@@H](Cc1c[nH]c2ccccc12)C(=O)NCCO)[C@H](C)O)C(C)C [compound 3956] (For-VGA[dV]A[dL]V[dT]W[dL]W[dL]W[dL]W-NHCH2CH2OH)",
    "viability (%)": 100
  },
  {
    "COMPOUND": "CNC(=O)C[C@@H](NC(=O)[C@H](C)NC(=O)[C@H](NC(=O)[C@H](C)NC(=O)CNC(=O)[C@@H](NC=O)C(C)C)C(C)C)C(=O)N[C@H](C(=O)N[C@@H](C(=O)N[C@@H](Cc1c[nH]c2ccccc12)C(=O)N[C@@H](C(=O)N[C@@H](Cc1c[nH]c2ccccc12)C(=O)N[C@H](CC(C)C)C(=O)N[C@@H](Cc1c[nH]c2ccccc12)C(=O)N[C@H](CC(C)C)C(=O)N[C@@H](Cc1c[nH]c2ccccc12)C(=O)NCCO)C(C)C)C(C)C)C(C)C [compound 5211] (For-VGA[dV]A[dD](NHMe)V[dV]W[dV]W[dL]W[dL]W-NHCH2CH2OH)",
    "viability (%)": 100
  }
]

Consider the record given below.
Challenge: Name the recorded viability of the compound listed here: CC(C)C[C@@H](NC(=O)[C@H](C)NC(=O)CNC(=O)[C@@H](NC=O)C(C)C)C(=O)N[C@@H](C)C(=O)N[C@H](CC(C)C)C(=O)N[C@H](C(=O)N[C@@H](C(=O)N[C@@H](Cc1c[nH]c2ccccc12)C(=O)N[C@@H](C(=O)N[C@@H](Cc1c[nH]c2ccccc12)C(=O)N[C@H](CC(C)C)C(=O)N[C@@H](Cc1c[nH]c2ccccc12)C(=O)N[C@@H](C(=O)N[C@@H](Cc1c[nH]c2ccccc12)C(=O)NCCO)[C@H](C)O)C(C)C)C(C)C)C(C)C [compound 9823] (For-VGA[dL]A[dL]V[dV]W[dV]W[dL]W[dT]W-NHCH2CH2OH)
Response given: 100
